Parameter abundance fitness: see the listing below.
B1: Zinc finger MYM-type protein 3, residues 405 to 444; numbered along this chain, Q14202 (parent)
chain: DATRCSICQKTGEVLHEVSNGSVVHRLCSDSCFSKFRANK

Variants of: B1
assay_notes: abundance fitness (aPCA) (normalised: wild type 0, dead -1); higher = more abundant; growth selection in yeast, the domain comes from the species named
experimental_conditions: Homo sapiens
Reply briefly: the number, and no unit.

Data request: What abundance fitness value was documented for this variant, S6I ?
Data returned: -0.021

Data request: Lookup R4M
Data returned: 0.047

Data request: Lookup H25W
Data returned: -0.247

Data request: Lookup C8F
Data returned: -0.754

Data request: Lookup L15K
Data returned: 0.079

Data request: Lookup E13S
Data returned: -0.201
